For each record, write down the corresponding self-cleavage.
B1: Twister Ribozyme (parent)
chain: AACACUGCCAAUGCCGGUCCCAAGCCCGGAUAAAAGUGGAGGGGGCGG

variants of: B1; test: self-cleavage, relative activity (ratio to wild type); higher = more cleavage; co-transcriptional
Please state the value as a number alone, without comment.

// Input: AACACUGCCAAUGCCGGUCCCAAGCCCGCAUAAAUGUGGAGGGGGCGG [G29C A35U] . Output its self-cleavage only.
0.885

// Input: AACACUGCCAAUGCCGCUCCCAAGCCCGGAUAAAAGUGGAGUGGGCGG [G17C G42U] . Output its self-cleavage only.
0.0737

// Input: AACACUGCCAAAGCCGGUCCCAAGCCCGGAUAAGAGUGGAGGGGGCGG [U12A A34G] . Output its self-cleavage only.
1.02

// Input: AACACUGCCAAUGCCGGACCCAAGCCCGGAUAACAGUGGAGGGGGCGG [U18A A34C] . Output its self-cleavage only.
0.113

// Input: AACACUGCCAAUGCCGGUCCCAAGCCCGGACAAUAGUGGAGGGGGCGG [U31C A34U] . Output its self-cleavage only.
0.739

// Input: AACACUGCCAAUGCAGGUCCCAAGCCCGGAUAAAAGUCGAGGGGGCGG [C15A G38C] . Output its self-cleavage only.
0.452

// Input: AAAGCUGCCAAUGCCGGUCCCAAGCCCGGAUAAAAGUGGAGGGGGCGG [C3A A4G] . Output its self-cleavage only.
0.102

// Input: AACACUGCCAAUGCCGGUCCCAAGCCAGGAUAAAACUGGAGGGGGCGG [C27A G36C] . Output its self-cleavage only.
0.123

// Input: AACACUGCCAAUGCCGGUCCCGAGCCCGGAUAAAAGUGGAGGGAGCGG [A22G G44A] . Output its self-cleavage only.
0.315

// Input: AACACUGCCAAUUCCGGUCCCAAGCCCGGAUAAAAGAGGAGGGGGCGG [G13U U37A] . Output its self-cleavage only.
0.133

// Input: AACACUGCCAAUGCCGGUCGCAAGCCCGGAUAAAAGUGUAGGGGGCGG [C20G G39U] . Output its self-cleavage only.
0.0983

// Input: ACCACUGCCAAUGCCGGUCCCAAUCCCGGAUAAAAGUGGAGGGGGCGG [A2C G24U] . Output its self-cleavage only.
0.0478

// Input: AACACUACCAAUGCCGGUCCCAAGGCCGGAUAAAAGUGGAGGGGGCGG [G7A C25G] . Output its self-cleavage only.
0.237

// Input: AACACUGCCAAUGCCGGUCCCAAGCCCGGAUAAAAGUGAAGGUGGCGG [G39A G43U] . Output its self-cleavage only.
0.134

// Input: AACACUGCCAAUGCCGGUCGUAAGCCCGGAUAAAAGUGGAGGGGGCGG [C20G C21U] . Output its self-cleavage only.
0.115

// Input: AACACUGCCAAUGCCGGUCCCAAGCCCGGACAAAAGUGGAGCGGGCGG [U31C G42C] . Output its self-cleavage only.
0.413

// Input: UACACUGCCAAUGCUGGUCCCAAGCCCGGAUAAAAGUGGAGGGGGCGG [A1U C15U] . Output its self-cleavage only.
0.0337

// Input: AACACUGCCAAUGCCGGUCCGAAGCCCGGAUAAAGGUGGAGGGGGCGG [C21G A35G] . Output its self-cleavage only.
0.0519

// Input: AACACUGCCAAUGCCGGUCCCAGGCCCGGAUAAAAGUGGAGGGGGCGA [A23G G48A] . Output its self-cleavage only.
0.327

// Input: AACACCGCCAAUGCCGGUCCCAAGCCAGGAUAAAAGUGGAGGGGGCGG [U6C C27A] . Output its self-cleavage only.
0.0694

// Input: AACACUGCCAAUGCCGGUCCCAAGCCCGGAUAAAAGUGGAGGGAGCGA [G44A G48A] . Output its self-cleavage only.
0.927

// Input: AACACUGCCAAUGCCGGUCCCAAGCCCGGAUCAAAGUGGAGGGGUCGG [A32C G45U] . Output its self-cleavage only.
0.758

// Input: AACACUGUCAAUGCCGGUCCCAAGCCCGGGUAAAAGUGGAGGGGGCGG [C8U A30G] . Output its self-cleavage only.
0.766

// Input: AACACUGCCAAUGCCGGUCCCAAGCCAGGAUAAAAGUGGCGGGGGCGG [C27A A40C] . Output its self-cleavage only.
0.155

// Input: AACACUGCCAAUGCCGGUCCCAAGCCUGGAUAAAAGUGGCGGGGGCGG [C27U A40C] . Output its self-cleavage only.
0.159

// Input: AACACUGCCAAUGCCGGUCCAAAGCCCGCAUAAAAGUGGAGGGGGCGG [C21A G29C] . Output its self-cleavage only.
0.0813

// Input: AGCACUCCCAAUGCCGGUCCCAAGCCCGGAUAAAAGUGGAGGGGGCGG [A2G G7C] . Output its self-cleavage only.
0.087

// Input: AACACUGCCAAUGCCGGUCCCAAGCCCGGAUAAAUGUGGAGGGGGCGA [A35U G48A] . Output its self-cleavage only.
1.02

// Input: AACACUGCCAAUGCCGGUCCCAAGCCCGGAUAAAAGUGGAGGGGACUG [G45A G47U] . Output its self-cleavage only.
0.701

// Input: AACACUGCCAAUGCCGGUCCCAAGCCCGGAUCUAAGUGGAGGGGGCGG [A32C A33U] . Output its self-cleavage only.
0.865

// Input: AACACUGCCAAUGCUGUUCCCAAGCCCGGAUAAAAGUGGAGGGGGCGG [C15U G17U] . Output its self-cleavage only.
0.204

// Input: AACACUGCCAAUGCCGGUCCCUAGCCCGGAUAAAAGUGGAGGGGGCGG [A22U] . Output its self-cleavage only.
0.879

// Input: AACACUACCAAUGCCGGUCCCAAGCCCGGACAAAAGUGGAGGGGGCGG [G7A U31C] . Output its self-cleavage only.
0.451

// Input: UACACUGCCAUUGCCGGUCCCAAGCCCGGAUAAAAGUGGAGGGGGCGG [A1U A11U] . Output its self-cleavage only.
0.0684

// Input: AACACUGCCACUGCCGGUCCCAAGUCCGGAUAAAAGUGGAGGGGGCGG [A11C C25U] . Output its self-cleavage only.
0.733

// Input: AACACUGCCAAUGCCGGUCCCAAGUCCGGAUAAAAGUGGAGGGUGCGG [C25U G44U] . Output its self-cleavage only.
0.809

// Input: AACAUUGCCAAUGCCGGUCCCAAGCCCGGAUAAAAGUGGAGGGGGGGG [C5U C46G] . Output its self-cleavage only.
0.776

// Input: AACACUGCCAAUGCCGGUCACAAGCCCGGAUAAAAGUGGAAGGGGCGG [C20A G41A] . Output its self-cleavage only.
0.0878

// Input: GACACUGCCAAUGCCGGUCCCAAGCCCGUAUAAAAGUGGAGGGGGCGG [A1G G29U] . Output its self-cleavage only.
0.358

// Input: AACACUGCCAAUGCCGGUCCCAAGCCCGGAUAAUAGUGGAGGGGGCGC [A34U G48C] . Output its self-cleavage only.
0.855

// Input: AACACUGCCAAUGCCGGUCCCAAGCCCGGACAUAAGUGGAGGGGGCGG [U31C A33U] . Output its self-cleavage only.
1.08

// Input: AAUACUGCCAAUGCGGGUCCCAAGCCCGGAUAAAAGUGGAGGGGGCGG [C3U C15G] . Output its self-cleavage only.
0.125

// Input: AACACUGCCAACGCCGGUCCCAAGCCCGGAUAAAAGUGGAGGGGUCGG [U12C G45U] . Output its self-cleavage only.
0.973

// Input: AACACUGCCAAUGCCGGGGCCAAGCCCGGAUAAAAGUGGAGGGGGCGG [U18G C19G] . Output its self-cleavage only.
0.114

// Input: AAGACUGCCAAUGCCGGUCCCAUGCCCGGAUAAAAGUGGAGGGGGCGG [C3G A23U] . Output its self-cleavage only.
0.107

// Input: AACACUGCGAAUGCCGGUCCCAAGCCCGGAUAAAAGUCGAGGGGGCGG [C9G G38C] . Output its self-cleavage only.
0.4
